- Target Or Test System: c-Src SH2
- Method Description: SH2 binding enrichment of the phosphorylated peptide, bacterial display (enrichment ratio); higher = better substrate or ligand; peptides without Tyr show the background
Short version: SH2 binding enrichment at least 0.5 is t, less is f.

Chain Sequence	Category
FQRITYHNWRH [PDE6B_Y556_R552Q_YF]	t

Prompt: Evaluate RIGRKYKKVRF [F8_Y442] : SH2 binding enrichment at minimum 0.5?
Response: f

Prompt: Evaluate EEKKKYFDAKI [CASP5_Y103_T106A_YF] : SH2 binding enrichment at minimum 0.5?
Response: f

Prompt: Evaluate ARSMEYLAEQK [MST1R_Y1198] : SH2 binding enrichment at minimum 0.5?
Response: f

Prompt: Evaluate EFTAGYNVKFD [GPX4_Y123_A120T] : SH2 binding enrichment at minimum 0.5?
Response: f

Prompt: Evaluate STASGYSDVTD [DTX2_Y425] : SH2 binding enrichment at minimum 0.5?
Response: t

Prompt: Evaluate FSQNIYIQNRN [PKP2_Y631_YF] : SH2 binding enrichment at minimum 0.5?
Response: t

====

- Target Or Test System: Grb2 SH2 (UniProt P62993)
- Sequence (P62993 whole entry, looked up): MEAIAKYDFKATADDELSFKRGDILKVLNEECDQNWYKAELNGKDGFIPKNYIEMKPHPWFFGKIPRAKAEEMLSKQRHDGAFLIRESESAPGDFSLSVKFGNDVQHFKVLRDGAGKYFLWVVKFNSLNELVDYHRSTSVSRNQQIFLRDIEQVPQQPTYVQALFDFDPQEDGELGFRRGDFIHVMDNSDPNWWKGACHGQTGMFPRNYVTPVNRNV
- Method Description: SH2 binding enrichment of the phosphorylated peptide, bacterial display (enrichment ratio); higher = better substrate or ligand; peptides without Tyr show the background
Categories are defined by ranges of SH2 binding enrichment, namely low-valued (below 0.8), mid-valued (0.8 to below 0.9), high-valued (0.9 or more)

Check out these entries, answers already filled in.
Chain Sequence	Category
EICTQYEAMAS [GFAP_Y242_R239C]	high-valued
IGNGFYFRVFS [MYBPC3_Y1136_YF]	high-valued
EPYKVYRIVPE [IRF8_Y110]	low-valued
TTSQLYDAMPI [PDPK1_Y9_V12M]	mid-valued
TVINKYQGKLF [HGD_Y249]	mid-valued
AVLSLYASGCT [ACTA2_Y145_R149C]	mid-valued
TGDFGYRTPGF [TNS2_Y668_A670T_YF]	low-valued
EESSHYSTEKE [ADAR_Y587]	high-valued

Prompt: // bin(item) where item = IFCIQYNICAF [MYH4_Y820_R823C]
Response: high-valued

====

- Target Or Test System: SHP2-C SH2
- Method Description: SH2 binding enrichment of the phosphorylated peptide, bacterial display (enrichment ratio); higher = better substrate or ligand; peptides without Tyr show the background
# maps each entry to its SH2 binding enrichment
In your answer, state the number alone without any accompanying words.

Worked cases, SH2 binding enrichment given:
Chain Sequence	Target Or Test System	Experimental Value
VDEERYDIEAK [TNNI3_Y112]	SHP2-C SH2	0.647
LLKAKYELLNA [POLR3A_Y714]	SHP2-C SH2	0.444
SVTCTHSPALN [TP53_Y126_Y126H]	SHP2-C SH2	0.389
PEVSGYCHFAD [TG_Y234_C237Y_YF]	SHP2-C SH2	0.631
QKKPRYEIRWK [PDGFRB_Y562]	SHP2-C SH2	3
VDEVLYEDSST [MTHFS_Y197]	SHP2-C SH2	0.635
LGGSPYPGVPV [FGFR1_Y701]	SHP2-C SH2	0.874
GFDHSYFFIAT [ESD_Y262_YF]	SHP2-C SH2	0.697
LMVFEYMRHGN [NTRK1_Y591_D596N]	SHP2-C SH2	1.89
DDDPEYRKFLE [UPF3B_Y160]	SHP2-C SH2	0.542

Prompt: What value of SH2 binding enrichment has been recorded for this entry: KKHIPYKEHKS [CSNK1G1_Y205_R206K]
Response: 2.23

Prompt: What value of SH2 binding enrichment has been recorded for this entry: FGSVMYEFVGK [SLC18A1_Y251]
Response: 0.445

Prompt: What value of SH2 binding enrichment has been recorded for this entry: NTYEKYWPFYQ [GATM_Y103]
Response: 0.762

Prompt: What value of SH2 binding enrichment has been recorded for this entry: QFRFIYMAVQH [PTPN11_Y515_YF]
Response: 0.635

====

- Target Or Test System: FGFR3 (UniProt P22607)
- Sequence (P22607 whole entry, looked up): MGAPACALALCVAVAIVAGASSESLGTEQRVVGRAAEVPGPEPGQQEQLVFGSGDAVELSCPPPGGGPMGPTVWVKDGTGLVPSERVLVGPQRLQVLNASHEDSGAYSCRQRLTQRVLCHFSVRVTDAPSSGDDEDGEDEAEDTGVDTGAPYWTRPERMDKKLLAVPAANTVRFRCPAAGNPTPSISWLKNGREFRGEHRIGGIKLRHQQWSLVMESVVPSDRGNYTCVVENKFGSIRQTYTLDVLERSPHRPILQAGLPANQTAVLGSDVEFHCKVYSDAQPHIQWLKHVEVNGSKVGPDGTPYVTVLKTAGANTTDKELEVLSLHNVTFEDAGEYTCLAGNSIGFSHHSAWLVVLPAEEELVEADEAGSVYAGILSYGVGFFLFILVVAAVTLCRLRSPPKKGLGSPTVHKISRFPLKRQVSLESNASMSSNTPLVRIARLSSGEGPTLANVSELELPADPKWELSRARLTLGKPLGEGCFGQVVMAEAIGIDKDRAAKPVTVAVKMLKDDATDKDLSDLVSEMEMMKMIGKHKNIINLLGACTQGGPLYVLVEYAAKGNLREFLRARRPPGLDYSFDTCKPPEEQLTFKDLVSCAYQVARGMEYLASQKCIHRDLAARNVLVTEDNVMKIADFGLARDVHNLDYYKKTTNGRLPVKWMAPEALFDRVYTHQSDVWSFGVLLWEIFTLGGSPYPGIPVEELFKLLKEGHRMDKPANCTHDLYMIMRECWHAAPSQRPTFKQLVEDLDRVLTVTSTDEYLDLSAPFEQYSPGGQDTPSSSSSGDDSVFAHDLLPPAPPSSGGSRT
- Method Description: phosphorylation enrichment, bacterial display (enrichment ratio); higher = better substrate or ligand; peptides without Tyr show the background
Short version: phosphorylation enrichment at least 0.6 is T, less is F.

Prompt: Evaluate RFLERYIYNPE [HLA-DPB1_Y57_R61P] : phosphorylation enrichment at minimum 0.6?
Response: T

====

- System: Fer (mouse)
- Method Description: phosphorylation enrichment, bacterial display (enrichment ratio); higher = better substrate or ligand; peptides without Tyr show the background
Short version: phosphorylation enrichment at least 0.4 is T, less is F.

Chain Sequence	Category
FDEFRYRSFIK [CFTR_Y517_V520F_YF]	T
YYHCTYKQRMI [CLEC12A_Y242_K244Q]	T
KILPEYLSNWT [AIFM1_Y347]	T
AFPGEYIPTVF [RAC1_Y32]	T
DNACQYMLTDR [MYH7_Y164_Y162C]	T
CASQLYPRHKH [DCTN4_Y263]	T
TRDVNYGWIIR [MT-CYB_Y75]	T
SVQVEYMKTIL [GLYATL2_Y127_D126E]	T
SREALYNETDP [CACNA1A_Y794_M797T]	T
LQLLGHRPVYS [CHST6_Y358_Y358H]	T

Prompt: Evaluate LRWREYQRQDF [PRKRIP1_Y90_R87W_YF] : phosphorylation enrichment at minimum 0.4?
Response: T

Prompt: Evaluate CITIHYNFMCN [TP53_Y234_T230I_YF] : phosphorylation enrichment at minimum 0.4?
Response: T

====

- Target Or Test System: EPHB2 (UniProt P29323)
- Sequence (P29323 whole entry, looked up): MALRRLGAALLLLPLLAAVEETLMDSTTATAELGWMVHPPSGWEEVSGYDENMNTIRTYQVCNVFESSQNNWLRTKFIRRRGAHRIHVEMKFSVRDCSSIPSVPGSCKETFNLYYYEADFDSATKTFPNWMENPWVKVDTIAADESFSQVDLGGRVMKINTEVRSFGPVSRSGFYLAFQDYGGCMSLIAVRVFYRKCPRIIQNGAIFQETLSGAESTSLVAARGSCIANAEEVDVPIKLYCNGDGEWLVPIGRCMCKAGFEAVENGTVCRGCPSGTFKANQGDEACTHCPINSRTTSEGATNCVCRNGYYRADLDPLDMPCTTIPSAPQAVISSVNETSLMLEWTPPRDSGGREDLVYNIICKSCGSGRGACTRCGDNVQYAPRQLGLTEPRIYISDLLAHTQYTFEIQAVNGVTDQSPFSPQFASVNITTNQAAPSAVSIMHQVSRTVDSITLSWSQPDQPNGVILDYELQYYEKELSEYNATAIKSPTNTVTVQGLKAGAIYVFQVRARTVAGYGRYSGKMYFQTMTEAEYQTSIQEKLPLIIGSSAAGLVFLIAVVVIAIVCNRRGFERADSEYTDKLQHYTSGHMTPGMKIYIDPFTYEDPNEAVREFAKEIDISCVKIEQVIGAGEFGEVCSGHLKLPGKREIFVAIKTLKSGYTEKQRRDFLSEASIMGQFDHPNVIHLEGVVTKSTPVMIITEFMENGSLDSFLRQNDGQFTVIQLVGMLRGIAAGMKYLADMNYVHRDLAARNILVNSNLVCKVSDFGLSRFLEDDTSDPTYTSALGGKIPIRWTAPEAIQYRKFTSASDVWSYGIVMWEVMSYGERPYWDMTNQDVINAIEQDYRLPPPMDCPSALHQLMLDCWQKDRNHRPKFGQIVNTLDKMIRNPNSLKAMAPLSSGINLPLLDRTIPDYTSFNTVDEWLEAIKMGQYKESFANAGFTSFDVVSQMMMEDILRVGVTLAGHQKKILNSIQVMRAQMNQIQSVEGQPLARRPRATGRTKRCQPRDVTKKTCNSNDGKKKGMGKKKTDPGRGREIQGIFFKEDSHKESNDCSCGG
- Method Description: phosphorylation enrichment, bacterial display (enrichment ratio); higher = better substrate or ligand; peptides without Tyr show the background
Short version: phosphorylation enrichment at least 0.7 is yes, less is no.

Check out these entries, answers already filled in.
Chain Sequence	Category
RHCSGYVLIAM [EFR3A_Y73_R70C]	no
RLQEDYDHSYY [ESD_Y258_G257D]	yes
LENSTYQYIRV [CRB1_Y760]	yes
PMQLPHDSTWE [PDGFRB_Y589_Y589H]	yes

Let us examine a further case.
Prompt: Evaluate DNACQYMLTDR [MYH7_Y164_Y162C] : phosphorylation enrichment at minimum 0.7?
Response: no

====

- Target Or Test System: EPHB2 (UniProt P29323)
- Method Description: phosphorylation enrichment, bacterial display (enrichment ratio); higher = better substrate or ligand; peptides without Tyr show the background
Measure: phosphorylation enrichment
In your answer, state the number alone without any accompanying words.

Chain Sequence	Target Or Test System	Experimental Value
LDFNEYFRDLN [HPRT1_Y198_YF]	EPHB2 (UniProt P29323)	0.461
GMSQAYSSSQR [DES_Y5]	EPHB2 (UniProt P29323)	0.321
IPGMEYLVSII [TNC_Y1775_V1773M]	EPHB2 (UniProt P29323)	0.855
KPEKTYGLRKE [CEP43_Y267]	EPHB2 (UniProt P29323)	0.409
SDPIVYTLENI [EMR1_Y534_I533V]	EPHB2 (UniProt P29323)	0.523
SIGLGYHKDLQ [NF1_Y1169]	EPHB2 (UniProt P29323)	0.629
KFRREYILSLE [GPC3_Y299_W296R_YF]	EPHB2 (UniProt P29323)	0.586
AGQEDCDRLRP [CDC42_Y64_Y64C]	EPHB2 (UniProt P29323)	0.444
SQKRKYIEIDS [SDAD1_Y580]	EPHB2 (UniProt P29323)	0.414
FVPAAYVKKLD [SPTAN1_Y1020]	EPHB2 (UniProt P29323)	0.472

Prompt: What value of phosphorylation enrichment has been recorded for this entry: PVDVAYRRGYF [PLEC_Y2967]
Response: 0.577

Prompt: What value of phosphorylation enrichment has been recorded for this entry: WVYNHYRCIIW [BRCA2_Y2624_W2626C]
Response: 0.645

====

- Target Or Test System: Fyn (UniProt P06241)
- Sequence (P06241 whole entry, looked up): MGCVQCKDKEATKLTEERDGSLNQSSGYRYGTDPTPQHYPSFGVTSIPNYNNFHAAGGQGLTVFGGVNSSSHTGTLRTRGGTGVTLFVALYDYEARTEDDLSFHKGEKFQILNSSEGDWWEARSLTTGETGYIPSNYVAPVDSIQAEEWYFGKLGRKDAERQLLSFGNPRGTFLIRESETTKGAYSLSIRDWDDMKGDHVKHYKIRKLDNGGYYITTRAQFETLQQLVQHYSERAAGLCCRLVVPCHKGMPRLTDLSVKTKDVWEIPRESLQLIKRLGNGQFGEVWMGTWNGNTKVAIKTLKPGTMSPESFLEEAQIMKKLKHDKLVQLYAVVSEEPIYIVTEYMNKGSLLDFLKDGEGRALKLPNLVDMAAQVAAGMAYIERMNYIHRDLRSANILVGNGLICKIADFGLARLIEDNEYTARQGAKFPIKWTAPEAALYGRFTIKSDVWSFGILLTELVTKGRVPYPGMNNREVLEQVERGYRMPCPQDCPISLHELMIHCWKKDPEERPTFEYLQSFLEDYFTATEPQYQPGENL
- Method Description: phosphorylation enrichment, bacterial display (enrichment ratio); higher = better substrate or ligand; peptides without Tyr show the background
Measure: phosphorylation enrichment
In your answer, state the number alone without any accompanying words.

Chain Sequence	Measure	Experimental Value
LSGVIYVILGK [PMP22_Y153_R157G]	phosphorylation enrichment	0.828

Prompt: What value of phosphorylation enrichment has been recorded for this entry: PVGDAYKKKGL [NMNAT1_Y55]
Response: 0.522

Prompt: What value of phosphorylation enrichment has been recorded for this entry: STTIHYNYMCN [TP53_Y234_C229S]
Response: 0.517

Prompt: What value of phosphorylation enrichment has been recorded for this entry: GGPAGYLRRAS [PKLR_Y38]
Response: 0.636

Prompt: What value of phosphorylation enrichment has been recorded for this entry: QRIYQYIRSRF [DYRK1B_Y273_Q275R]
Response: 0.809

Prompt: What value of phosphorylation enrichment has been recorded for this entry: ITLPIYTKGSE [ANK2_Y1455_E1458G]
Response: 0.581

Prompt: What value of phosphorylation enrichment has been recorded for this entry: INMKKYCKKDF [NTN1_Y490_YF]
Response: 0.438

Prompt: What value of phosphorylation enrichment has been recorded for this entry: ISISPYPAILH [IFT80_Y588_T586S]
Response: 0.343

Prompt: What value of phosphorylation enrichment has been recorded for this entry: AKRKGYDMQVD [NEB_Y2770_R2773Q]
Response: 0.327

Prompt: What value of phosphorylation enrichment has been recorded for this entry: IALNSCHSRNC [IFNGR1_Y397_Y397C]
Response: 0.359

Prompt: What value of phosphorylation enrichment has been recorded for this entry: PPAPRYHHLAV [LZTR1_Y119_S122L]
Response: 0.444

Prompt: What value of phosphorylation enrichment has been recorded for this entry: SAEEDYKADAK [KCNT1_Y876_M877K]
Response: 0.534

Prompt: What value of phosphorylation enrichment has been recorded for this entry: YVGGFYGGCNE [CTSC_Y352]
Response: 0.864

Prompt: What value of phosphorylation enrichment has been recorded for this entry: ANNEFYFRVCA
Response: 0.483

Prompt: What value of phosphorylation enrichment has been recorded for this entry: LSQAKYQIRYR [CRLF1_Y272_F268S]
Response: 0.776
